- targetOfAssay: Focal adhesion kinase 1 (Homo sapiens, UniProt Q05397)
- Sequence (Q05397 whole entry): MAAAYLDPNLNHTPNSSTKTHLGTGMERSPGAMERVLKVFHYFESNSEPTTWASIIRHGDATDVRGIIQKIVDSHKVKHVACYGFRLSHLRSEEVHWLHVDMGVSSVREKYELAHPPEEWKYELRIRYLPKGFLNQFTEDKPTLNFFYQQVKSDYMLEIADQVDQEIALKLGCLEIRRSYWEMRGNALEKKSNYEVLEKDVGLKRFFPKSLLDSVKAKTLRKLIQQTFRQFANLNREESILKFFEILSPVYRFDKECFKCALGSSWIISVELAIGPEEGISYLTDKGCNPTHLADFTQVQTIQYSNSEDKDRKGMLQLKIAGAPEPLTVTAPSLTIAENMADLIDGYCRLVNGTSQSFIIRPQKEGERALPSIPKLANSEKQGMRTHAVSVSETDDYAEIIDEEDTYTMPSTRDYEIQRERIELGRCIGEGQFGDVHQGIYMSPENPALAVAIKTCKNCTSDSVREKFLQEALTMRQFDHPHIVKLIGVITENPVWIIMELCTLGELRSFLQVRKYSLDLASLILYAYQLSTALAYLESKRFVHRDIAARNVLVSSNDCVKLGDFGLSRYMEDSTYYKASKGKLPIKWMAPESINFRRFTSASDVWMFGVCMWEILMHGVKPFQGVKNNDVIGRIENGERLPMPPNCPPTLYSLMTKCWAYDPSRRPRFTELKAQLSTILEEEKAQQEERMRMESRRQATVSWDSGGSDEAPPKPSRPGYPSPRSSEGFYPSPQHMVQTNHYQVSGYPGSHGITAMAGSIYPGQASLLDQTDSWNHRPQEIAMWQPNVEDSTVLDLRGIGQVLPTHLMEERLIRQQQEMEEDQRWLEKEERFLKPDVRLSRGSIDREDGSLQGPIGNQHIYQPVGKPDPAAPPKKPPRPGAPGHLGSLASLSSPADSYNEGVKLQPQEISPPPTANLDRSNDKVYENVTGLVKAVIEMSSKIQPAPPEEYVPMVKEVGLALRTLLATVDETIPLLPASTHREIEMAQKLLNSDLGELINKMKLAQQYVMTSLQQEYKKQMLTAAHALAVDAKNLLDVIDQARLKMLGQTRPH
- assayExplanation: Inhibition of recombinant FAK

{"compound": "COc1cc(O)c(C(=O)O)c(C2=C(C)C[C@@H](O)C2=O)c1", "targetOfAssay": "Focal adhesion kinase 1 (Homo sapiens, UniProt Q05397)", "IC50": "> 1 ×10⁻⁵ g/ml"}
{"compound": "Cc1cc(O)c(O)cc1-c1cc(O)cc(O)c1C(=O)O", "targetOfAssay": "Focal adhesion kinase 1 (Homo sapiens, UniProt Q05397)", "IC50": "> 1 ×10⁻⁵ g/ml"}
{"compound": "COc1cc(O)c2c(c1)-c1cc(O)c(O)cc1COC2=O", "targetOfAssay": "Focal adhesion kinase 1 (Homo sapiens, UniProt Q05397)", "IC50": "> 1 ×10⁻⁵ g/ml"}
{"compound": "COc1cc(O)c(C(=O)O)c(-c2cc(O)c(O)cc2C)c1", "targetOfAssay": "Focal adhesion kinase 1 (Homo sapiens, UniProt Q05397)", "IC50": "> 1 ×10⁻⁵ g/ml"}
{"compound": "COc1cc(O)c2c(c1)C1(OC2=O)C(C)=CC(=O)C1O (stereo not given)", "targetOfAssay": "Focal adhesion kinase 1 (Homo sapiens, UniProt Q05397)", "IC50": "> 1 ×10⁻⁵ g/ml"}
